- System: β3-positive and β3-negative tumor cells (FG, PANC-1)
- Assay method text: Self renewal tumorsphere assay and soft agar assay, 3D (Example 3)
- Assay type: cell-based, human
- Setup conditions: β3 ectopic expression (FG) or knockdown (PANC-1)
- Procedure: Tumorsphere assay was performed as previously described. Soft agar formation assays were performed essentially as described previously. […] The media was replaced with fresh inhibitor 2/5 times a week. Survival curves were generated at least with five concentration points. […] Tumor volumes are expressed as mean±SEM. *P<0.05. […] Results are expressed as % tumor weight compared to vehicle control. *P<0.05. […]
Measured endpoint: effect of β3 expression on drug response, cells growing in 3D

CS(=O)(=O)CCNCc1ccc(-c2ccc3ncnc(Nc4ccc(OCc5cccc(F)c5)c(Cl)c4)c3c2)o1	reduced sensitivity
C[C@]1(O)C[C@@H](c2nc(-c3ccc4ccc(-c5ccccc5)nc4c3)c3c(N)nccn32)C1	reduced sensitivity
C#Cc1cccc(Nc2ncnc3cc(OCCOC)c(OCCOC)cc23)c1	reduced sensitivity

Where these numbers come from: patent US20180203014A1
